# Tested on: Fibroblast
# procedure-text: Multiplex assay against human fibroblast
# Type: toxicity, cell-based
# study-conditions: 12 h, 10 µM, compound concentration 10 uM, replicate 2
Would you mind classing the entries by Population Mitochondria Different-Phenotype (%)? Ranges: LOW: < 6%; MID: ≥ 6% and < 10%; HIGH: ≥ 10%

Problem: Looking at COc1cc2nc(N3CCN(C(=O)COc4c(OC)cccc4C(C)C)CC3)nc(N)c2cc1OC.Cl.Cl , which class would you pick?
Result: MID

Problem: Looking at C[C@@H]1CC(=O)Nc2cccc(-c3ccc4c(c3)c(-c3cnn(C)c3)nn4C)c2N1 , which class would you pick?
Result: LOW

Problem: Looking at COc1cc(C(=O)N2CC[C@@H](O)[C@@H](N)C2)cc2nc(-c3cc4ccccc4n3CC3CC3)n(C)c12.Cl , which class would you pick?
Result: HIGH

Problem: Looking at O=C(O)CCC/C=C\CC1C(O)CC(O)C1/C=C/C(O)COc1cccc(Cl)c1 (stereo unspecified) , which class would you pick?
Result: MID

Problem: Looking at Cc1cc(-c2ccc3c(c2)CC[C@H]3N2CC3(CCN(C(=O)Cc4cn5cc(C)sc5n4)CC3)C2)ncn1 , which class would you pick?
Result: LOW

Problem: Looking at OCCCNc1cc(-c2ccnc(Nc3cccc(Cl)c3)n2)ccn1 , which class would you pick?
Result: HIGH

Problem: Looking at COc1cc(Nc2ncc3c(n2)-c2ccc(Cl)cc2C(c2c(F)cccc2OC)=NC3)ccc1C(=O)O , which class would you pick?
Result: HIGH

Problem: Looking at CCC(=O)OCC(=O)[C@@]1(OC(=O)CC)[C@@H](C)C[C@H]2[C@@H]3CCC4=CC(=O)C=C[C@]4(C)[C@@]3(Cl)[C@@H](O)C[C@@]21C [BECLOMETHASONE DIPROPIONATE] , which class would you pick?
Result: HIGH

Problem: Looking at CC(F)(F)CN1CCOc2c(nn(-c3ccccc3Cl)c2-c2ccc(Cl)cc2)C1=O , which class would you pick?
Result: MID

Problem: Looking at COc1ccc2[nH]c(I)c(CCNC(C)=O)c2c1 , which class would you pick?
Result: LOW

###

Can you tell me Population Mitotic Cells (%) for the items I'm about to list?
# Tested on: U2OS
# procedure-text: Multiplex assay against U2OS
# Format: toxicity, cell-based
# study-conditions: human, 24 h, 1 µM, compound concentration 1 uM, replicate 1
Reply numerically in %, unit not repeated.

Problem: Return value of Population Mitotic Cells (%) for input Cc1c(Cc2ccc3ccccc3n2)c2cc(F)ccc2n1CC(=O)O [TIMAPIPRANT] , no commentary.
Result: 3

Problem: Return value of Population Mitotic Cells (%) for input S=C(NCCCc1c[nH]cn1)NCCCN(Cc1ccc(Cl)c(Cl)c1)c1ccc(Br)cn1 , no commentary.
Result: 18

Problem: Return value of Population Mitotic Cells (%) for input Nc1nc(CC(=O)Nc2ccc(CCNC[C@H](O)c3ccccc3)cc2)cs1 [MIRABEGRON] , no commentary.
Result: 17

Problem: Return value of Population Mitotic Cells (%) for input CN1C[C@H](C(=O)N[C@]2(C)O[C@@]3(O)[C@@H]4CCCN4C(=O)[C@H](Cc4ccccc4)N3C2=O)C[C@@H]2c3cccc4[nH]cc(c34)C[C@H]21.CS(=O)(=O)O [DIHYDROERGOTAMINE MESYLATE] , no commentary.
Result: 10

Problem: Return value of Population Mitotic Cells (%) for input Cc1nn(C)c2nc(NNC(=O)Nc3cc(Cl)nc(Cl)c3)cc(C(C)C)c12 , no commentary.
Result: 19
